- System: SF-268
- ASSAY_PROTOCOL: NCI tumour cell line growth inhibition, 48 h
Calls of active or inactive are those of the source. No stated cut-off is given here; in the data, active = GI50 up to about 1.1 µM and inactive = higher.
Possible outcomes: true (1) (active), false (0) (inactive)

| COMPOUND | CLASS_LABEL |
| --- | --- |
| CC(=O)OCC1OC(n2cnc3nc(Br)[nH]c(=O)c32)C(OC(C)=O)C1OC(C)=O (centres undefined) | false (0) |
| CC1(C)CC[C@]2(C(=O)O)CC[C@]3(C)C(=CC[C@@H]4[C@@]5(C)C[C@H](O)[C@H](O)[C@@](C)(C(=O)O)[C@@H]5CC[C@]43C)[C@@H]2C1 | false (0) |
| O=C(O)CCCc1nc2c(n1Cc1ccccc1)C(=O)c1ccccc1C2=O | false (0) |
| N#CCCN(CCC#N)c1ccc(/C=C(\NC(=O)c2cc([N+](=O)[O-])ccc2Cl)C(=O)Nc2ccccc2)cc1 | false (0) |
| COC(=O)C(N)CCCC(N)C(=O)NC(C)C(=O)NC(CCC(=O)NCCNCCNc1c2ccccc2nc2cccc([N+](=O)[O-])c12)C(N)=O (centres undefined) | false (0) |
| CCOC(=O)c1nnc2c(C(=O)OCC)c3ccccc3n2c1N | false (0) |
| O=C(/C=C/c1ccc2ccccc2c1)NCc1ccc(C(=O)NCCc2ccccc2)cc1 | false (0) |
| COc1nc(NC2OCC(OC(C)=O)C(OC(C)=O)C2OC(C)=O)c(/N=C(\C)C(C)=O)c(=O)n1C (centres undefined) | false (0) |
| CSc1c(C#N)c(O)nc(N)c1C(=O)Nc1ccc(Cl)cc1 | false (0) |
| COc1cc(C2c3cc4c(cc3[C@@H](Nc3ccc(N(C)C)cc3)[C@H]3COC(=O)C23)OCO4)cc(OC)c1O (some centres undefined) | true (1) |
| CCOc1ccccc1NC(=O)CSc1nnc(Cc2ccccc2)o1 | false (0) |
| O=C(/C=C/c1ccco1)N1CCN(Cc2ccccc2)CC1 | false (0) |
| CC1(C)CCCC2CC2CCC(C)(C)C1=O (centres undefined) | false (0) |
| COC(=O)CCC(=O)C(CC(=O)OC)C(=O)CCC(=O)NCCc1ccccc1 (centres undefined) | false (0) |
| O=c1c(-c2ccccc2)c(SCCN2CCCC2)n(-c2ccccc2)c(=S)n1-c1ccccc1 | false (0) |
| COc1ccc(C(=C2C(=O)OC(=O)C2=C(C)C)c2ccc(OC)cc2)cc1 | false (0) |
| COC(=O)C(=O)C(C(=O)C(=O)Nc1ccccc1OC)c1nc2ccc([N+](=O)[O-])cc2nc1O (centres undefined) | false (0) |
| COC(=O)C1CCC(N2C(=O)CCC2C(=O)OC)=N1 (centres undefined) | false (0) |
| CC(=O)OC(C)(C)[C@@H]1CC[C@]2(C)/C=C/[C@H](C)C[C@@H](O)C3=C(C)C[C@@H](O3)C12 (some centres undefined) | false (0) |

###

- Test system: NCI-H522
- ASSAY_PROTOCOL: NCI tumour cell line growth inhibition, 48 h
Calls of active or inactive are those of the source. Rule as the data show it: active = GI50 up to about 1.1 µM and inactive = higher.
Classes used: active, inactive

| COMPOUND | CLASS_LABEL |
| --- | --- |
| CCc1c(CN)c(CC)c(CNC2=NCCN2)c(CC)c1CNC1=NCCN1 | inactive |
| C=C(Cl)C(Cl)(CCl)CCC(Br)C(C)(C)Br (centres undefined) | inactive |
| O=C(N/N=C/c1ccccc1O)N/N=C/c1ccccc1O | inactive |
| COc1cc(/C=C/C(=O)OCCc2ccccc2)ccc1O | inactive |
| CCCCCCCCCCCCCCCCCCNc1nc(=O)n(C2CC(O)C(COP(=O)(O)OCC(COP(=O)(O)OC3C(CO)OC(n4ccc(N)nc4=O)C3O)OCCCCCCCCCCCCCCCCCC)O2)cc1F (centres undefined) | inactive |
| O=c1sc(-c2nc3ccccc3[nH]2)c(/N=C/c2ccccc2)n1-c1ccccc1 | inactive |
| CC(=O)O[C@H]1C[C@H]2C(=S)Nc3ccccc3C(=S)N2C1 | inactive |
| Cc1ccc(-c2cc(=O)c3cc(C)c(C)c(C(=O)O)c3o2)cc1C | inactive |
| C/C=C(\C)c1cc(=O)c2c(C)cc3c(c2o1)C(=O)c1c(O)c(C2CC(C)(N(C)C)C(OC(C)=O)C(C)O2)cc(C2CC(N(C)C)C(O)C(C)O2)c1C3=O (centres undefined) | active |

###

- Test system: ACHN
- ASSAY_PROTOCOL: NCI tumour cell line growth inhibition, 48 h
Where a name gives a salt, the structure may show the parent alone. The source made the active and inactive calls. Rule as the data show it: active = GI50 up to about 1.1 µM and inactive = higher.
Possible outcomes: active, inactive

| COMPOUND | CLASS_LABEL |
| --- | --- |
| Oc1ccc(C(O)C2CCCCN2)cc1O (stereo unspecified) [RIMITEROL HYDROBROMIDE] | inactive |
| O=P1(c2ccccc2)CCCCC1 | inactive |
| COc1cc(C2c3cc4c(cc3[C@@H](Nc3ccc(N(C)C)cc3)[C@H]3COC(=O)C23)OCO4)cc(OC)c1O (stereo partly specified) | active |
| O=C(/C=C/c1ccco1)N1CCN(Cc2ccccc2)CC1 | inactive |
| COC(=O)C(=O)C(C(=O)C(=O)Nc1ccc(Cl)cc1C)c1nc2ccc(C(=O)c3ccccc3)cc2nc1O (stereo unspecified) | inactive |
| CC(=O)C(=N\Nc1ccc(Cl)cc1)/C(C)=N/c1ccc(C)cc1 | inactive |
| CCOC(=O)n1[nH]c(=O)n(-c2ccccc2)c1=O | inactive |
| Clc1ccc2sc(-n3ccc4ccccc43)nc2c1 | inactive |
| C=CCC(N(C)C(=O)[C@H](Cc1ccccc1)NC(=O)OCc1ccccc1)P(=O)(Oc1ccccc1)Oc1ccccc1 (stereo partly specified) | inactive |
| N#CCCN(CCC#N)c1ccc(/C=C(\NC(=O)c2cc([N+](=O)[O-])ccc2Cl)C(=O)Nc2ccccc2)cc1 | inactive |
| CN(C)c1ccc(/C=C/c2ccc(/C=C/c3ccc(N(C)C)cc3)cc2)cc1 | inactive |
| O=c1ccn(C2OC(CO)C(O)C2[Se]c2ccccc2)c(=O)[nH]1 (stereo unspecified) | inactive |
| CCOC(=O)C(C(=S)Nc1ccccc1)c1nn2c(=O)cc(C)nc2s1 (stereo unspecified) | inactive |
| COC(=O)c1ccc2c(O)c(O)ccc2c1 | inactive |
| Cc1ccc(-c2cc(=O)c3cc(C)c(C)c(C(=O)O)c3o2)cc1C | inactive |
| CC1C(=O)O[C@H]2C1CC[C@@]1(C)[C@H](O)CC[C@@]13C[C@]2(O)OO3 (stereo partly specified) | inactive |
| CCOc1cc2c(cc1O)CC[C@@H]1[C@@H]2CC[C@]2(C)[C@@H](O)CC[C@@H]12 | active |
| Cc1nc(C(N)=S)sc1C(=O)C/C(=N/N)C(=O)Nc1ccc(Cl)cc1 | inactive |
| COC(=O)[C@]1(C)C(OC)=CC(=O)C2C1[C@H]1CCC[C@@H]21 (stereo partly specified) | inactive |
| Cc1ccc2nc3c(Cl)cc(=O)cc-3sc2c1 | inactive |
| CCOc1ccccc1NC(=O)CSc1nnc(Cc2ccccc2)o1 | inactive |
| CCOC(=O)c1ccc(-n2c(SCC)nc3sc(C)c(C)c3c2=O)cc1 | inactive |
| CCn1c(=O)nc2n(-c3ccc(SC)cc3)c3ccccc3nc-2c1=O | inactive |
| CCOC(=O)Cn1c(=O)c2cc(-c3ccccc3)cc3c(Cl)nc4c(OC)c(OC)cc1c4c32 | inactive |
| C[N+]1(CCC(=O)c2ccco2)CC2CCC(CC2)C1 (stereo unspecified) | inactive |
| Cc1cc(C)nc(NS(=O)(=O)c2ccc(Nc3c4ccccc4nc4c(C(=O)NC(CO)(CO)CO)cccc34)cc2)n1 | inactive |
| CC1C[C@@]2(c3ccccc3)C(=O)CCC[C@H]2N1 (stereo partly specified) | inactive |
| O/N=C1\SC(=N\O)/C(=N/O)S\C1=N/O | inactive |
| CCCC(=O)OCC1OC(n2cc(F)c(=O)[nH]c2=O)C(F)C1O (stereo unspecified) | inactive |
| Cc1c(C(=O)CC(=O)C(=O)Nc2cccc(C(F)(F)F)c2)[n+]([O-])c2ccccc2[n+]1[O-] | inactive |
| CC(C)(C)OC(=O)CC(NC(=O)OC(C)(C)C)C(=O)Oc1ccc([N+](=O)[O-])cc1 (stereo unspecified) | inactive |

###

- System: TK-10
- ASSAY_PROTOCOL: NCI tumour cell line growth inhibition, 48 h
The source made the active and inactive calls. Cut-off read from the data, not from the text of the source: active = GI50 up to about 1.1 µM and inactive = higher. Where a SMILES comes first, the peptide text is derived from it. [ ]: non-standard residue; d: D form. The star is where a group is joined. NMeF = CN[C@@H](Cc1ccccc1)C(=O)O; NMeV = CN[C@H](C(=O)O)C(C)C; Boc = CC(C)(C)OC(=O)*; OBn = c1ccc(CO*)cc1
Possible outcomes: active, inactive

| COMPOUND | CLASS_LABEL |
| --- | --- |
| CC1(C)OC(COP2OCCO2)[C@H](COP2OCCO2)O1 (some centres undefined) | inactive |
| CC(=O)C(=N\Nc1ccc(Cl)cc1)/C(C)=N/c1ccc(C)cc1 | inactive |
| Cc1c(C(=O)CC(=O)C(=O)Nc2cccc(C(F)(F)F)c2)[n+]([O-])c2ccccc2[n+]1[O-] | inactive |
| CN(C(=O)Cc1cc(Cl)c(Cl)cc1N=C=S)[C@H]1CCCC[C@@H]1N1CCCC1 | inactive |
| O=C1Cc2nc(CO)c(CO)c(CO)c2CO1 | inactive |
| CC(C)(C)NNC(=O)/C(=C/c1ccc(Oc2ccc(Cl)c(Cl)c2)cc1)NC(=O)c1ccccc1 | inactive |
| COc1cccc(N(CN2CC=CC2=O)C(C)=O)c1 | inactive |
| COC(=O)C1=C(OC(=O)/C(=C/c2ccc(Cl)cc2)c2ccccc2)C(C(=O)OC)[C@@]2(O)[C@@H](C(=O)OC)[C@H](C)C[C@@H]1[C@@H]2C(=O)OC (some centres undefined) | inactive |
| CCOC(=O)/C=C(/C(=O)OCC)n1ccc(=O)n(Cc2cnnn2COCCOC(C)=O)c1=O | inactive |
| O=c1sc(-c2nc3ccccc3[nH]2)c(/N=C/c2ccccc2)n1-c1ccccc1 | inactive |
| CC(C)CCC1(O)O[C@H]2C[C@H]3[C@@H]4CCC5CC(=O)C=C[C@]5(C)[C@H]4CC[C@]3(C)[C@H]2[C@@H]1C (some centres undefined) | inactive |
| CC(=O)O[C@H]1CC[C@@]2(C)C(=CC[C@H]3[C@@H]4C/C(=C\c5ccc(N(C)C)cc5)[C@H](OC(C)=O)[C@@]4(C)CC[C@@H]32)C1 | inactive |
| NC(=S)N/N=C\c1nccc2ccccc12 | active |
| O=C(O)c1ccc2c(c1)C(=O)N(c1ccc(S(=O)(=O)c3ccc(N4C(=O)c5ccc(C(=O)O)cc5C4=O)cc3)cc1)C2=O | inactive |
| O=C(N/C(=C\c1ccccc1Cl)c1nc2ccccc2[nH]1)c1ccccc1 | inactive |
| COC(=O)C(=O)C(C(=O)C(=O)Nc1ccccc1OC)c1nc2ccc([N+](=O)[O-])cc2nc1O (centres undefined) | inactive |
| O=C(O)CCCc1nc2c(n1Cc1ccccc1)C(=O)c1ccccc1C2=O | inactive |
| Cc1cccc(O)c(=O)c1 | inactive |
| N#CCCN(CCC#N)c1ccc(/C=C(\NC(=O)c2cc([N+](=O)[O-])ccc2Cl)C(=O)Nc2ccccc2)cc1 | inactive |
| O=c1c2c([N+](=O)[O-])cccc2nc2[nH]c3ccccc3n12 | inactive |
| CCOC(=O)C1COc2cc(-c3cc(=O)c4ccccc4o3)ccc2O1 (centres undefined) | inactive |
| COc1ccc(OC)c2c(C)ccnc12 | inactive |
| CC1=NN(c2nc(N)nc(/C(C#N)=C/c3cccn3-c3cc(Cl)cc(Cl)c3)n2)C(C)(C)C1 | inactive |
| CC(C)[C@@H](C(=O)N1CCC[C@H]1C(=O)OCc1ccccc1)N(C)C(=O)[C@H](C(C)C)N(C)C(=O)[C@H](Cc1ccccc1)N(C)C(=O)[C@H](NC(=O)OC(C)(C)C)C(C)C (Boc-[dV][NMeF][NMeV][NMeV]P-OBn) | inactive |
| COc1cc(C(=O)C/C(CCC(=O)Nc2ccccc2[N+](=O)[O-])=N\NC(=O)C(N)=O)ccc1O | inactive |
| COc1ccc(C(=C2C(=O)OC(=O)C2=C(C)C)c2ccc(OC)cc2)cc1 | inactive |
| COC(=O)C1CCC(=O)N1C(c1ccc2c(c1)OCO2)c1ccc2c(c1)OCO2 (centres undefined) | inactive |
| OC1(C(F)(F)F)OCCN=C1C(F)(F)F (centres undefined) | inactive |
| CN(C)Cc1cc(C(=O)/C=C/c2ccccc2)cc(CN(C)C)c1O | inactive |
